- assay-overview: Pharmacokinetic studies in rat (i.v.)
- Type: in vivo
- run-parameters: male, Sprague-Dawley, rat, plasma, iv, 1.2 mg/kg, I-19 1.2 mg/kg i.v., rat plasma, 1 h, Mean ± SD; read-out: Plasma concentration
recorded-endpoint: concentration at 1 h

Please look up its concentration at 1 h: CSc1ccc2[nH]cc(CCN(C)C(C)C)c2c1 [Compound I-19] 35.4 ng/mL

----------
- assayed-system: UniProtKB P08908
- Sequence (P08908 1-422): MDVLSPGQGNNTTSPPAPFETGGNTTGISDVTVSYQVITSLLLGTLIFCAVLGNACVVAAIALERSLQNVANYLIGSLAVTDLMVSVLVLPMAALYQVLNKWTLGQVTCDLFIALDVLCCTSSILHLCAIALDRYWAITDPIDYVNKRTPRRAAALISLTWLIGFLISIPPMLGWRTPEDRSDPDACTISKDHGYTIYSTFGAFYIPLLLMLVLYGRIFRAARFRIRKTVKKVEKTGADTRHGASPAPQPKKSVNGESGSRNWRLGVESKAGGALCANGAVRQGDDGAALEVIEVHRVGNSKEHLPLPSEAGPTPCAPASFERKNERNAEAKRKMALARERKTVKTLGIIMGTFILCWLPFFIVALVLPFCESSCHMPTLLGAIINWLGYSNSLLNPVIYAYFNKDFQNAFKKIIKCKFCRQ
- assay-overview: Human 5-HT1A functional FLIPR assay (agonist mode)
- Assay type: cell-based
- Parameters: expressed in transfected cells; host or cells: HTR1A&Gα15-CHO
- run-parameters: @10 μM, RFU=Fmax−Fmin (Table 47)
recorded-endpoint: RFU@10 μM

Some compounds with known RFU@10 μM results, for comparison:
COc1ccc2[nH]cc(CCN(C)CCOC(F)F)c2c1
3,087 RFU
COc1ccc2[nH]cc(CCN3CC[C@H](OC(F)F)C3)c2c1 [(S) I-67]
3,930 RFU
COc1ccc2[nH]cc(CCN3CC[C@@H](OC)C3)c2c1 [(R) I-66]
3,690 RFU

Please look up its RFU@10 μM: COc1ccc2[nH]cc(CCN3CC[C@@H](OC(F)F)C3)c2c1 [(R) I-67] 3,988 RFU

----------
- assayed-system: human 5-HT2A receptor (Homo sapiens)
- assay-overview: Human 5-HT2A functional FLIPR assay (agonist mode)
- Format: cell-based
- Set-up: expressed in transfected cells; host or cells: HTR2A&Gα15-HEK293 (tetracycline induction)
- run-parameters: @10 μM, RFU=Fmax−Fmin (Table 39)
recorded-endpoint: RFU@10 μM

CN(C)CCc1c[nH]c2ccccc12
3,493 RFU
COc1ccc2[nH]cc(CCN3CC[C@H](OC(F)F)C3)c2c1 [(S) I-67]
2,147 RFU
CN(C)CCc1c[nH]c2ccc(OCCOC(F)F)cc12
2,159 RFU

Please look up its RFU@10 μM: `COc1ccc2[nH]cc(CCN(C)CCOC(F)F)c2c1` 1,094 RFU

----------
- assayed-system: human 5-HT2A receptor (Homo sapiens, UniProt P28223)
- Sequence (P28223 whole entry): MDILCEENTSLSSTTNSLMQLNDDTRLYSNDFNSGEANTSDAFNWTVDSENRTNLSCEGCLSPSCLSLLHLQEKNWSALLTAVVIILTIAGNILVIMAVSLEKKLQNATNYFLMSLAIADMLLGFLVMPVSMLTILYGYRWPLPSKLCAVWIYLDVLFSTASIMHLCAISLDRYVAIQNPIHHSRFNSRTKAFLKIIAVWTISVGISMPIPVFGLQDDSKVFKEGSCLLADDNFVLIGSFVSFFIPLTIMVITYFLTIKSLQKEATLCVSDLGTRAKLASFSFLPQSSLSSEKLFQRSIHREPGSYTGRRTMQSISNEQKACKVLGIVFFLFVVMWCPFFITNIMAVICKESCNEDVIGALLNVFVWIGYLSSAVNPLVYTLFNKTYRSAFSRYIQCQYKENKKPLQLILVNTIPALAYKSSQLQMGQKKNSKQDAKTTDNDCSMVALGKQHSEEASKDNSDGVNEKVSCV
- assay-overview: Human 5-HT2A functional FLIPR assay (agonist mode)
- Type: cell-based
- Design: expressed in transfected cells; host or cells: HTR2A&Gα15-HEK293 (tetracycline induction)
- run-parameters: @10 μM, RFU=Fmax−Fmin (Table 9)
recorded-endpoint: RFU@10 μM

Please look up its RFU@10 μM: `CCN(CC)CCc1c[nH]c2ccc(SC)cc12` 1,041 RFU

Lookup `[2H]C([2H])([2H])N(CCc1c[nH]c2ccc(SC)cc12)C([2H])([2H])[2H]` 7,177 RFU

Lookup `CSc1ccc2[nH]cc(CCN(C)C(C)C)c2c1` 819 RFU

Lookup `CN(C)CCc1c[nH]c2ccccc12` 3,493 RFU
